The following compounds are shown together with reported Porcine Atria IC25 values.
# Tested on: Porcine Atria myofibrils
# TEST DETAILS: Myofibril ATPase assay (PK/LDH NADH-coupled), atria myofibrils
# Format: biochemical
# STUDY CONDITIONS: Table 7
Response body: numeric value in µM, unit text excluded.

O=C(CN1Cc2c(ccnc2C(F)(F)F)NC1=O)N[C@H](CO)c1ncc(F)cc1F : 100.00
Cc1cc(F)ccc1[C@H](C)NC(=O)CN1Cc2cnccc2NC1=O : 3.75
C[C@H](NC(=O)[C@@H](C)N1Cc2nc(F)ccc2NC1=O)c1ccccc1F : 1.66
C[C@H](NC(=O)CN1Cc2nc(F)ccc2NC1=O)c1ncc(F)cc1F : 100.00
C[C@H](NC(=O)CN1C(=O)Nc2cccnc2C12CC2)c1ncc(F)cc1F : 100.00
CCOc1ccc2c(n1)CN(CC(=O)N[C@@H](C)c1ccc(F)cc1F)C(=O)N2 : 0.75

**Q:** Give the measured Porcine Atria IC25 of `C[C@H](NC(=O)CN1C(=O)Nc2ccc(O)nc2C12CC2)c1ccc(F)cc1F` .
**A:** 100.00

**Q:** Same thing, different compound: `C[C@H](NC(=O)CN1Cc2nc(Br)ccc2NC1=O)c1ccc(F)cc1F`
**A:** 0.16

---

The following compounds are shown together with reported Porcine Atria IC25 values.
# System: Porcine Atria myofibrils
# TEST DETAILS: Myofibril ATPase assay (PK/LDH NADH-coupled), atria myofibrils
# Format: biochemical
# STUDY CONDITIONS: Table 8
Response body: numeric value in µM, unit text excluded.

Some solved cases for reference:
C[C@H](NC(=O)CN1Cc2c(ccc(F)c2F)NC1=O)c1nnc(-c2ccccc2F)s1 : 1.91
C[C@H](NC(=O)CN1C(=O)Nc2ccc(F)c(F)c2[C@H]1C)c1ccc(F)cc1F (relative stereo) : 0.04
C[C@H](NC(=O)CN1Cc2c(ccc(F)c2F)NC1=O)c1ncc(C2COC2)cn1 : 0.90
C[C@H](C(=O)N[C@H](C)c1ncc(C#N)cc1F)N1Cc2c(ccc(F)c2F)NC1=O : 1.96
C[C@@H](NC(=O)CN1Cc2c(ccc(F)c2F)NC1=O)c1ccc(Cl)cn1 : 1.26
C[C@@H](NC(=O)CN1Cc2cc(F)ccc2NC1=O)c1ncccn1 : 100.00
CC(NC(=O)CN1Cc2cc(F)ccc2NC1=O)c1ccc(C#N)cc1F (single isomer, unassigned) [Compound B206] : 0.03

Now for a further compound.
**Q:** Give the measured Porcine Atria IC25 of `C[C@@H](NC(=O)CN1Cc2c(ccc(F)c2F)NC1=O)c1ncc(Br)cc1F` .
**A:** 0.16

---

The following compounds are shown together with reported Porcine Ventricle IC25 values.
# SUBJECT OF TEST: Porcine Ventricle myofibrils (left ventricle of Yucatan minipigs) (Sus scrofa, UniProt P79293)
# Construct: Myofibrils from porcine cardiac muscle was isolated from the left ventricle of Yucatan minipigs; tissue Exemplar Genetics; host or cells: left ventricle of Yucatan minipigs
# Sequence (P79293 whole entry): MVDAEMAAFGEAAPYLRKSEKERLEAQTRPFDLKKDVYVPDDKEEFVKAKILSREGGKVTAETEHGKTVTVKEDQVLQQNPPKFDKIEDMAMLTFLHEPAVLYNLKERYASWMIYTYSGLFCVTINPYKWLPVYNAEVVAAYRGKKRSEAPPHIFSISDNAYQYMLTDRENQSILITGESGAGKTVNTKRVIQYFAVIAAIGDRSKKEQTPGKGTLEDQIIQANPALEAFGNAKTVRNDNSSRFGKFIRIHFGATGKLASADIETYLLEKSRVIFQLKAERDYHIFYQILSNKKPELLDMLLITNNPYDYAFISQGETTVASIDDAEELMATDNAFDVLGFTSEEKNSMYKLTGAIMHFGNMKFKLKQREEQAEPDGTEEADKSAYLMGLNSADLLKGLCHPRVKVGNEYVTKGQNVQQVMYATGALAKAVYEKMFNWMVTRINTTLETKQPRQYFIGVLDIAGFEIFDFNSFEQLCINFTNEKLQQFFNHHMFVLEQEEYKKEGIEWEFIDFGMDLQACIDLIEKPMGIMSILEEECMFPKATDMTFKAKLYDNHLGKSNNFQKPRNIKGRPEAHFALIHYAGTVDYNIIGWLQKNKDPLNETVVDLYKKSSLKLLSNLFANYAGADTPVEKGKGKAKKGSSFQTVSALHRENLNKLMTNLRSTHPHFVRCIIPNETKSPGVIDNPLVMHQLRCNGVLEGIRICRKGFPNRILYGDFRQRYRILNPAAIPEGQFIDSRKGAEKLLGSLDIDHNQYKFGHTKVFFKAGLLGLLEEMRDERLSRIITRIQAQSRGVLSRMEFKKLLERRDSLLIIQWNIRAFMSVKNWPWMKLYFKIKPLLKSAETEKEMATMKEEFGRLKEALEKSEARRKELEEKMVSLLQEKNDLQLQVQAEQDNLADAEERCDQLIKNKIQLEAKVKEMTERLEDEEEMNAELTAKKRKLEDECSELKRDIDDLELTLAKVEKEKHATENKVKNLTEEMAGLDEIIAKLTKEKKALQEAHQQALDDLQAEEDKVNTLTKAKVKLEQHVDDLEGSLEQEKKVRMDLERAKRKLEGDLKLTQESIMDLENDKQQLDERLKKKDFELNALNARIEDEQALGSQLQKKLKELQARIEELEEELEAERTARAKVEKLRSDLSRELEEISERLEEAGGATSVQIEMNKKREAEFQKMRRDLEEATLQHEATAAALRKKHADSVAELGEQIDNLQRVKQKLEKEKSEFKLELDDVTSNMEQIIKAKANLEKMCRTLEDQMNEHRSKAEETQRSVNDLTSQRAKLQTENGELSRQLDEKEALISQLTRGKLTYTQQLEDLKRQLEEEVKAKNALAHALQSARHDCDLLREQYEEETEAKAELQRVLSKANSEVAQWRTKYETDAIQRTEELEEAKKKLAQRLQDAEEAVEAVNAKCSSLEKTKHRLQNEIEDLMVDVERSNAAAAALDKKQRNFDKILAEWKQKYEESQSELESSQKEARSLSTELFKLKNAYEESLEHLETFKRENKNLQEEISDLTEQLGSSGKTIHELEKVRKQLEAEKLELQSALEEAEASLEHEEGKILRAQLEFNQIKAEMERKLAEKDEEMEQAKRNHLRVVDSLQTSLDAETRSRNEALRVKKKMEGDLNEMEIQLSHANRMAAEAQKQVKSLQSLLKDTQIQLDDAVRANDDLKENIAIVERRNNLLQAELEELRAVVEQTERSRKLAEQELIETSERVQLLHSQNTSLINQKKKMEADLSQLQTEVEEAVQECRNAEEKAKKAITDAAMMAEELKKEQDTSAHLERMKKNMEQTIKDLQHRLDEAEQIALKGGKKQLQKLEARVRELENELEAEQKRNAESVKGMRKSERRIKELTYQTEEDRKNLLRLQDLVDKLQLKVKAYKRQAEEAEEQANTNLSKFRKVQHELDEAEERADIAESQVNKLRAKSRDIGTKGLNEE
# TEST DETAILS: Myofibril ATPase assay (PK/LDH NADH-coupled), ventricle myofibrils
# Assay type: biochemical
# STUDY CONDITIONS: Table 7
Returns: string containing the number followed by the unit.

Some solved cases for reference:
CC(C(=O)N[C@@H](C)c1ccc(F)cc1F)N1Cc2nc(F)ccc2NC1=O (some centres unmarked) : 19.54 µM
C[C@@H](NC(=O)CN1Cc2c(ccnc2C(F)(F)F)NC1=O)c1ncc(F)cc1F : 100 µM
N#Cc1nccc2c1CN(CC(=O)N[C@@H]1COc3cc(F)cc(F)c31)C(=O)N2 : 0.266 µM

**Q:** Give the measured Porcine Ventricle IC25 of `COc1nccc2c1CN(CC(=O)N[C@@H](C)c1ccc(F)cc1F)C(=O)N2` .
**A:** 2.663 µM

**Q:** Same thing, different compound: `C[C@@H](NC(=O)CN1Cc2c(F)cncc2NC1=O)c1ncc(F)cc1F`
**A:** 100 µM
